Assay: Pharmacokinetic study in rats after a single intravenous administration of concentrated Kudiezi injection (HPLC-MS/MS of plasma)
Type: in vivo, Sprague-Dawley rats
Details: male, Sprague-Dawley, rat, plasma, iv, 3.6 mL/kg, single i.v. 3.6 mL/kg of 15 times concentrated KI, mean ± SD, n = 5, read-out: MRT0-t
For each record, write down the corresponding MRT last.
The reply should be a number in h, with the unit left off.

[in] Specify MRT last for O=C(/C=C/c1ccc(O)c(O)c1)O[C@@H]1C[C@](O)(C(=O)O)C[C@@H](O)[C@H]1O [I, 5-caffeoylquinic acid] and stop.
[out] 2.29

[in] Specify MRT last for O=C(O)/C=C/c1ccc(O)c(O)c1 [Compound V, caffeic acid] and stop.
[out] 4.09

[in] Specify MRT last for O=c1cc(-c2ccc(O)c(O)c2)oc2cc(O[C@@H]3O[C@H](CO[C@@H]4O[C@H](CO)[C@@H](O)[C@H](O)[C@H]4O)[C@@H](O)[C@H](O)[C@H]3O)cc(O)c12 [Compound VI, luteolin-7-O-β-D-gentiobioside] and stop.
[out] 0.2

[in] Specify MRT last for O=C(/C=C/c1ccc(O)c(O)c1)O[C@H]1[C@H](O)C[C@](O)(C(=O)O)C[C@H]1O [IV, 4-caffeoylquinic acid] and stop.
[out] 2.72

[in] Specify MRT last for O=C(O)[C@H]1O[C@@H](Oc2cc(O)c3c(=O)cc(-c4ccc(O)c(O)c4)oc3c2)[C@H](O)[C@@H](O)[C@@H]1O [VII, luteolin-7-O-β-D-glucuronide] and stop.
[out] 0.25

[in] Specify MRT last for O=C(/C=C/c1ccc(O)c(O)c1)O[C@@H](C(=O)O)[C@@H](O)C(=O)O [II, caftaric acid] and stop.
[out] 3.84

[in] Specify MRT last for O=C(O)[C@H]1O[C@@H](Oc2cc(O)c3c(=O)cc(-c4ccc(O)cc4)oc3c2)[C@H](O)[C@@H](O)[C@@H]1O [IX, apigenin-7-O-β-D-glucuronide] and stop.
[out] 0.09

[in] Specify MRT last for O=c1cc(-c2ccc(O)c(O)c2)oc2cc(O[C@@H]3O[C@H](CO)[C@@H](O)[C@H](O)[C@H]3O)cc(O)c12 [VIII, luteolin-7-O-β-D-glucoside] and stop.
[out] 0.09
